target: GSPT1 (Homo sapiens, UniProt P15170+Q96SW2); assay: Cellular degradation assay, eGFP-GSPT1 fusion with mCherry reporter in Flp-In 293 cells; assay type: cell-based; parameters: expressed in transfected cells; host or cells: Flp-In 293; details: compound concentration 2.00E−06; 5 h incubation; n=1
Sequence (P15170 whole entry, the tested form may be a part): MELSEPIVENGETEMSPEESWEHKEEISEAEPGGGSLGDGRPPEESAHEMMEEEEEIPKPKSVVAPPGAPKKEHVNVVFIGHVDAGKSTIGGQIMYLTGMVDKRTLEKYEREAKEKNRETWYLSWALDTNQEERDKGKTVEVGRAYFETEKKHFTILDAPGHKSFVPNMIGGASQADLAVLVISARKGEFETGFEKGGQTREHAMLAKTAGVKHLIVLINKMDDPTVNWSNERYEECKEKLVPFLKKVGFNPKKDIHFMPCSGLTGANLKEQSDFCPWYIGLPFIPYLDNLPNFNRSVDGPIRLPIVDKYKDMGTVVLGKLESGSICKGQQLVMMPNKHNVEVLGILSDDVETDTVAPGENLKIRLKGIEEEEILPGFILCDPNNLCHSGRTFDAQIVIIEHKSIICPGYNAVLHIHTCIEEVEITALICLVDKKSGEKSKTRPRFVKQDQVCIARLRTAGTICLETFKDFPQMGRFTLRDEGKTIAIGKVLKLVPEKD
Sequence (Q96SW2 whole entry, the tested form may be a part): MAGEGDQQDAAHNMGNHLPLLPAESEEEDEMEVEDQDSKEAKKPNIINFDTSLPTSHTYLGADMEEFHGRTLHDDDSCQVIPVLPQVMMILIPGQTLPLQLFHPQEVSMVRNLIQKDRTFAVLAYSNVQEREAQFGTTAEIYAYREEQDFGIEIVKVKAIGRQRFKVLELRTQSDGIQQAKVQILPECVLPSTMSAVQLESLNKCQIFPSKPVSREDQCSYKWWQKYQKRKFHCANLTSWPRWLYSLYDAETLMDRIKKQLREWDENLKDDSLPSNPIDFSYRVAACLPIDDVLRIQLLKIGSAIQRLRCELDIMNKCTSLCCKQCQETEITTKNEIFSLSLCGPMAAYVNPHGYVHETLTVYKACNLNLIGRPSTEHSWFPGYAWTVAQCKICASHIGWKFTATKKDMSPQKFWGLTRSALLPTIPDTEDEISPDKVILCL
Sequence (Q16531 whole entry partner, the tested form may be a part): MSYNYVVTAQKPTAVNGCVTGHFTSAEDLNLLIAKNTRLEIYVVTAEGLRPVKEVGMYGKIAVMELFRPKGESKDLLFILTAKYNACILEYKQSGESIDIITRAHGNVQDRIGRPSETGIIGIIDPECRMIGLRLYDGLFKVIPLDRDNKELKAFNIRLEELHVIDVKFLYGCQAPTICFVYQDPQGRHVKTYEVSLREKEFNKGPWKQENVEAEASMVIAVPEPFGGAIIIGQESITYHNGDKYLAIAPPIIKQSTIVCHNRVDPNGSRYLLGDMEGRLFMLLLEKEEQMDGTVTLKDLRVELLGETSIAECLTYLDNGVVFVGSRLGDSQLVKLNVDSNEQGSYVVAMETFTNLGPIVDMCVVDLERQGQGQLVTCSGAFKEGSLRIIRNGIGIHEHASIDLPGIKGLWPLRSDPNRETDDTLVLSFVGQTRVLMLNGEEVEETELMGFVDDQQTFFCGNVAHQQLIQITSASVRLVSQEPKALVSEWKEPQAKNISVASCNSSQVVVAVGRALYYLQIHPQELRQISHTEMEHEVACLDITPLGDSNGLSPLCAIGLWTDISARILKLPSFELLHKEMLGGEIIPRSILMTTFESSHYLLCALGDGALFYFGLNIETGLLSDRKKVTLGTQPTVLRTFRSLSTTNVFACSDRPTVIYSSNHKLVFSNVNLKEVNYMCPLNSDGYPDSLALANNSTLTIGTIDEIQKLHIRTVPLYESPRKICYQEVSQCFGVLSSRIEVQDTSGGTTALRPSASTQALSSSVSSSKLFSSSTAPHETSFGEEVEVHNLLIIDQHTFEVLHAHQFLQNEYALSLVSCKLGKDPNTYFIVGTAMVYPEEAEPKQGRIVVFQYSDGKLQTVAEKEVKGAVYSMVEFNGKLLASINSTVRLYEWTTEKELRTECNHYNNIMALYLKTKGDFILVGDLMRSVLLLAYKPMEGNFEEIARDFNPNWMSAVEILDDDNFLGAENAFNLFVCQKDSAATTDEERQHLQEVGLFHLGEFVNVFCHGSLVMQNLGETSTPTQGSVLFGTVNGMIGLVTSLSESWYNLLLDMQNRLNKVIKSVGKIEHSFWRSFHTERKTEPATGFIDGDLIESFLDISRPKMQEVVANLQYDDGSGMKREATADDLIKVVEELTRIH
assay_metric: GSPT1 GFP/RFP Relative Abundance

Look over these answered cases.
# compound, readout_value
measured = [
    ("CN(C1=CC(=O)N(C2CCC(=O)NC2=O)C1=O)c1ccccc1 (centres unmarked)", 0.917),
    ("Cc1cc(NC2=CC(=O)N(C3CCC(=O)NC3=O)C2=O)ccc1Cl (centres unmarked)", 0.904),
    ("O=C1CCC(N2C(=O)C=C(Nc3ccccc3)C2=O)C(=O)N1 (centres unmarked)", 0.903),
    ("Cc1ccc(NC(=O)Cc2cccc(NC3=CC(=O)N(C4CCC(=O)NC4=O)C3=O)c2)cc1Cl (centres unmarked)", 0.702),
]

Please turn your attention to the following entry.
What does the record list as GSPT1 GFP/RFP Relative Abundance for O=C1CCC(N2C(=O)C=C(Nc3ccc(-n4ccnc4)cc3)C2=O)C(=O)N1 (centres unmarked) ?
0.913

* * *

molecular target: IKZF1 (Homo sapiens, UniProt Q13422); construct: expressed in transfected cells; host or cells: Flp-In 293; assay: Cellular degradation assay, eGFP-IKZF1Δ fusion with mCherry reporter in Flp-In 293 cells; type: cell-based; conditions: compound concentration 2.00E−07; 5 h incubation; n=1
Sequence (Q13422 83-213 isoform Q13422-7 limits assumed): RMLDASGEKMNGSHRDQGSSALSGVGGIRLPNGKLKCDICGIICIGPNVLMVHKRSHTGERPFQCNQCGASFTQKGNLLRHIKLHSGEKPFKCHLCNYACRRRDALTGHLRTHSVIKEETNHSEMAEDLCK
Sequence (Q96SW2 whole entry partner, the tested form may be a part): as the sequence (Q96SW2 whole entry, the tested form may be a part) above
Sequence (Q16531 2-1140 partner limits assumed): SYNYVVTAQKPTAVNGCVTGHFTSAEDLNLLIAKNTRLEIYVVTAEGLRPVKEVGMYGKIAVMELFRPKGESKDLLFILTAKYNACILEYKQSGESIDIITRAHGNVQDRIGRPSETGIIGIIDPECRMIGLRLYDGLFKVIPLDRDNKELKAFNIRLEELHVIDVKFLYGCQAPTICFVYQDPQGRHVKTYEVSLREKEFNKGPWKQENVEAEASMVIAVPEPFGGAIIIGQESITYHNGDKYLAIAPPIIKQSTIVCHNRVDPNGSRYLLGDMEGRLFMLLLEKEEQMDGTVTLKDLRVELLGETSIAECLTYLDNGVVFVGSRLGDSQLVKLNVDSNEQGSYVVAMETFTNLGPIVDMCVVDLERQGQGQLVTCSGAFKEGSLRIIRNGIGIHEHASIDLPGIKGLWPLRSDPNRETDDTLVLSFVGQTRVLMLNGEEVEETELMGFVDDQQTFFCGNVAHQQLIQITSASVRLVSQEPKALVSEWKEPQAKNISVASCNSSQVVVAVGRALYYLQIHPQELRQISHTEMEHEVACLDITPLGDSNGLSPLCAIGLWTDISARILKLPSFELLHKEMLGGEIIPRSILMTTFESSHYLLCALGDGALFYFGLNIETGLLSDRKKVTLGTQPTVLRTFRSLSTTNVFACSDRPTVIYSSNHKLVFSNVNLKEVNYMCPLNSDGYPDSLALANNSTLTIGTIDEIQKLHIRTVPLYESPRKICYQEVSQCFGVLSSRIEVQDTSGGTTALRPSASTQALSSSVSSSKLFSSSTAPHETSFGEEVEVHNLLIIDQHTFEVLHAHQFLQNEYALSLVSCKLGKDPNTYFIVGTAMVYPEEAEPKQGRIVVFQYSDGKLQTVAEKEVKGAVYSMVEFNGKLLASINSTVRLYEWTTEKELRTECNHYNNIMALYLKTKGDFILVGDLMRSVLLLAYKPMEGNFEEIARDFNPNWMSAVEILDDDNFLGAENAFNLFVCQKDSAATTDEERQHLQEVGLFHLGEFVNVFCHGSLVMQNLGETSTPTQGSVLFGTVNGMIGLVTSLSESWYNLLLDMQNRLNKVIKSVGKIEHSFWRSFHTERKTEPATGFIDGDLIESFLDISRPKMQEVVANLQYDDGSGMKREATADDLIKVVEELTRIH
Items are presented alongside their recorded IKZF1 GFP/RFP Relative Abundance.
Answer field: number only, no words.

# compound, assay_metric, readout_value
data = [
    ("O=C1CCC(N2C(=O)C=C(Nc3cccc(CNC(=O)Nc4ccccc4)c3)C2=O)C(=O)N1 (stereo not drawn) [Compound 119]", "IKZF1 GFP/RFP Relative Abundance", 0.101),
    ("Cc1ccc(NC(=O)Cc2cccc(NC3=CC(=O)N(C4CCC(=O)NC4=O)C3=O)c2)cc1Cl (stereo not drawn) [Compound 50]", "IKZF1 GFP/RFP Relative Abundance", 0.093),
    ("Cc1ccc(NC(=O)N2Cc3ccc(NC4=CC(=O)N(C5CCC(=O)NC5=O)C4=O)cc3C2)cc1Cl (stereo not drawn) [Compound 107]", "IKZF1 GFP/RFP Relative Abundance", 0.997),
    ("COC(=O)c1n[nH]c(NC2=CC(=O)N(C3CCC(=O)NC3=O)C2=O)n1 (stereo not drawn) [Compound 20]", "IKZF1 GFP/RFP Relative Abundance", 0.342),
    ("COC(=O)CCNC1=CC(=O)N(C2CCC(=O)NC2=O)C1=O (stereo not drawn) [Compound 14]", "IKZF1 GFP/RFP Relative Abundance", 1.043),
    ("O=C1CCC(N2C(=O)C=C(Nc3ccc(-c4ccccc4)cc3)C2=O)C(=O)N1 (stereo not drawn) [Compound 38]", "IKZF1 GFP/RFP Relative Abundance", 0.621),
]

What value of IKZF1 GFP/RFP Relative Abundance on IKZF1 (Homo sapiens, UniProt Q13422) does COC(=O)CN(C)C1=CC(=O)N(C2CCC(=O)NC2=O)C1=O (stereo not drawn) [Compound 15] have?
0.996

Form field: IKZF1 GFP/RFP Relative Abundance recorded for Cc1ccc(NC(=O)NCc2ccc3c(c2)CN(C2CCC(=O)NC2=O)C3=O)cc1Cl (stereo not drawn) [CC-885, reference compound] with IKZF1 (Homo sapiens, UniProt Q13422) (enter value)
0.077

Record lookup: for IKZF1 (Homo sapiens, UniProt Q13422), what IKZF1 GFP/RFP Relative Abundance belongs to COC(=O)CNC1=CC(=O)N(C2CCC(=O)NC2=O)C1=O (stereo not drawn) [Compound 13] ?
1.058
